Measured TGI accompanies every entry in the list below.
- System: 786-0 renal
- Protocol notes: NCI tumour cell line growth inhibition, 48 h

# Cpd smiles, Outcome measure, Readout value
rows = [
    ("Cc1nc2nn(C)cc2c(=O)n1/N=C/c1ccccc1", "TGI", "> 100 µM"),
    ("COc1cc2nncc(SCc3ccc(Cl)c(Cl)c3)c2cc1OC", "TGI", "> 100 µM"),
]

Okay, next one:
INPUT: Give TGI for the following molecule: COc1ccc(/C(C#N)=C(/N)SCc2ccccc2Cl)cc1
OUTPUT: 32.7 µM

###

- Tested on: NCI-H226 lung
- Protocol notes: NCI tumour cell line growth inhibition, 48 h
Outcome measure: TGI (µM)
Respond with the bare value in µM.

# Compound, Outcome measure, Readout value
data = [
    ("O=c1cc(-c2ccc(O)cc2)oc2cc(O)cc(O)c12", "TGI", 75.9),
    ("CC1=C(C)C(=O)C(C2=C(C3=CC(=O)C(C)=C(C)C3=O)C(=O)c3ccccc3C2=O)=CC1=O", "TGI", 21),
]

Okay, next one:
INPUT: Give TGI for the following compound: CN1CCCC(C(=O)OCC(=O)C2(O)CCC3C4CCC5=CC(=O)CCC5(C)C4C(O)CC32C)C1 (stereo unspecified)
OUTPUT: 33.9

###

Measured TGI accompanies every entry in the list below.
- Test system: NCI-H522 lung
- Protocol notes: NCI tumour cell line growth inhibition, 48 h

Completed entries (count: 3):
# Cpd smiles, Measurement target, TGI
records = [
    ("CN(C)N=Nc1nn(C(=O)Nc2ccc(Cc3ccccc3)cc2)c2ccccc12", "NCI-H522 lung", "> 100 µM"),
    ("CC(=O)O/N=C/c1cc2c(cc1Br)OCO2", "NCI-H522 lung", "> 349 µM"),
    ("Cc1cc(C)nc(NS(=O)(=O)c2ccc(NC(=O)c3cccc4c(N)c5ccccc5nc34)cc2)n1", "NCI-H522 lung", "> 100 µM"),
]

INPUT: Give TGI for the following molecule: COc1nc(OC)nc(Sc2ccc(Sc3ccc(Sc4nc(OC)nc(OC)n4)cc3)cc2)n1
OUTPUT: > 100 µM

INPUT: Give TGI for the following molecule: CCc1n[nH]c(=S)n1/N=C\c1ccc(-c2ccccc2[N+](=O)[O-])o1
OUTPUT: > 100 µM

###

Measured TGI accompanies every entry in the list below.
- Test system: SNB-19 CNS
- Protocol notes: NCI tumour cell line growth inhibition, 48 h

INPUT: Give SNB-19 CNS TGI for the following compound: O=C(O)CCc1nc2cc3ccccc3cc2[nH]c1=O
OUTPUT: > 100 µM

INPUT: Give SNB-19 CNS TGI for the following compound: COc1ccc(/C(C#N)=C(/N)SCc2ccccc2Cl)cc1
OUTPUT: > 10 µM

###

- Test system: M14 melanoma
- Protocol notes: NCI tumour cell line growth inhibition, 48 h
Outcome measure: TGI

INPUT: Give TGI for the following molecule: COC(=O)CCC(C)[C@H]1CCC2C3C(C[C@H](OC(C)=O)[C@@]21C)[C@@]1(C)CCC2(C[C@H]1C[C@H]3OC(C)=O)OOC1(CCCCC1)OO2 (stereo partly specified)
OUTPUT: > 100 µM

###

- Test system: HS 578T breast
- Protocol notes: NCI tumour cell line growth inhibition, 48 h
Outcome measure: TGI

# Molecule, TGI
data = [
    ("COc1cc2c3cc1Oc1c(OC)c(OC)cc4c1C(Cc1ccc(cc1)Oc1cc(ccc1O)CC3N(C)CC2)N(C)CC4 (configuration not stated)", "31.4 µM"),
    ("NCCSC(C[N+](=O)[O-])c1ccccc1Cl (configuration not stated)", "7.63 µM"),
]

INPUT: Give TGI for the following molecule: O=c1oc2c(ccc3c(O)cccc32)c2c1CCCC2
OUTPUT: > 100 µM

INPUT: Give TGI for the following molecule: Oc1ccc(Cn2c(-c3ccc(O)cc3)nc3ccccc32)cc1
OUTPUT: > 100 µM

###

Measured TGI accompanies every entry in the list below.
- Test system: T-47D breast
- Protocol notes: NCI tumour cell line growth inhibition, 48 h

Completed entries (count: 2):
# Compound, TGI
data = [
    ("O=C(O)CCc1nc2cc3ccccc3cc2[nH]c1=O", "> 100 µM"),
    ("C[N+]12CCCCC1C(CN1C(=O)c3ccccc3C1=O)CCC2 (stereo not drawn)", "> 100 µM"),
]

Okay, next one:
INPUT: Give TGI for the following compound: NCCCCCNOCCCN
OUTPUT: > 100 µM

###

Measured TGI accompanies every entry in the list below.
- System: SF-295 CNS
- Protocol notes: NCI tumour cell line growth inhibition, 48 h
*1 amine or outer side, *2 acyl side, *3 side chain or, on linkers, in order; H or OH if unused. Where a SMILES comes first, the peptide text is derived from it. [ ]: non-standard residue; d: D form. The star is where a group is joined. X31 = CC(=O)N(C)SCC(N[*:1])C(=O)[*:2]; Fmoc = O=C(OCC1c2ccccc2-c2ccccc21)*; For = O=C*

# Compound, TGI
measured = [
    ("NS(=O)(=O)c1ccc(NC(=O)c2cccc3c(Nc4ccc(S(N)(=O)=O)cc4)c4ccccc4nc23)cc1", "> 100 µM"),
    ("CC(C)(CN)SCc1ccccc1", "> 100 µM"),
    ("CC(=O)N(C)SCC(NC(=O)C(Cc1ccccc1)NC(=O)OCC1c2ccccc2-c2ccccc21)C(=O)NC(Cc1ccccc1)C(=O)NC(Cc1cn(C=O)c2ccccc12)C(=O)NC(CCCCNC(=O)OCC1c2ccccc2-c2ccccc21)C(=O)NC(C(=O)NC(CSN(C)C(C)=O)C(=O)NC(C(N)=O)C(C)O)C(C)O (stereo not given) (Fmoc-F[X31]FW(For)K(Fmoc)T[X31]T-NH2; configuration not given here)", "> 100 µM"),
    ("COc1cc2c(Cc3cc(OCc4ccccc4)ccc3N)nccc2c(OC)c1OC", "> 10 µM"),
]

Okay, next one:
INPUT: Give TGI for the following compound: C[N+]12CCCCC1C(CN1C(=O)c3ccccc3C1=O)CCC2 (stereo not given)
OUTPUT: > 100 µM

###

- Test system: HL-60(TB) leukemia
- Protocol notes: NCI tumour cell line growth inhibition, 48 h
Measured TGI accompanies every entry in the list below.

# Compound, TGI
measured = [
    ("N#CC(C(=O)CCC(=O)Nc1ccc(Cl)c(Cl)c1)c1ccc(Cl)cc1 (centres undefined)", "> 100 µM"),
    ("COC1OC(C(C)O)C2OC(C)(C)OC12 (centres undefined)", "> 100 µM"),
    ("COC(=O)[C@@H]1[C@H](O)CC[C@H]2[C@@]1(C)CC[C@@H](C)[C@]2(COC(C)=O)CC(=O)c1ccoc1", "> 50 µM"),
]

Okay, next one:
INPUT: Give TGI for the following compound: Cc1ccc(F)c2c(=O)cc(-c3ccccc3)[nH]c12
OUTPUT: > 100 µM

###

Measured TGI accompanies every entry in the list below.
- Test system: M14 melanoma
- Protocol notes: NCI tumour cell line growth inhibition, 48 h

# Molecule, Measurement target, TGI
data = [
    ("CCOC(=O)C1Oc2ccc([N+](=O)[O-])cc2C1(C)O (stereo unspecified)", "M14 melanoma", "> 100 µM"),
    ("CSc1nc(-c2ccc(Cl)cc2)c(C#N)c(=O)[nH]1", "M14 melanoma", "> 100 µM"),
    ("Nc1nc(NCCOCP(=O)(O)O)c(N)c(=O)[nH]1", "M14 melanoma", "> 100 µM"),
    ("C=C(CC)C[C@@H]1C[C@]2(C(=O)OC)c3[nH]c4ccccc4c3CCN2C1=O", "M14 melanoma", "36.5 µM"),
]

Okay, next one:
INPUT: Give TGI for the following molecule: O=S(=O)(N/N=C/c1ccc(Cl)cc1Cl)c1ccccc1
OUTPUT: > 100 µM

###

- Test system: KM12 colon
- Protocol notes: NCI tumour cell line growth inhibition, 48 h
Outcome measure: TGI

Completed entries (count: 8):
# Compound, TGI
records = [
    ("CCc1c2c(nc3ccc(OCc4ccc(B5OC(C)(C)C(C)(C)O5)cc4)cc13)-c1cc3c(c(=O)n1C2)COC(=O)[C@]3(O)CC", "1.62 µM"),
    ("CCOC(=O)Oc1ccc2c(c1)c(=O)c1c(NCCCN(CC)CC)ccc3nnn2c31", "19.8 µM"),
    ("Cc1ccc(S(=O)(=O)Nc2cc(Sc3ccccc3)c(O)c3ccccc23)cc1", "18.9 µM"),
    ("CCOC(=O)C(=O)Nc1cccc(C)c1C", "> 100 µM"),
    ("C[N+]12CCCCC1C(CN1C(=O)c3ccccc3C1=O)CCC2 (centres undefined)", "> 100 µM"),
    ("CN(C)N=Nc1nn(C(=O)Nc2ccc(Cc3ccccc3)cc2)c2ccccc12", "> 100 µM"),
    ("CC1(C)N=C(Oc2ccccc2)n2nccc2N1", "> 100 µM"),
    ("CN(C)Cc1[nH]c2ccccc2c1C(=O)c1ccccc1", "> 100 µM"),
]

INPUT: Give TGI for the following compound: O=C1Nc2ccc(Br)cc2/C1=C/C(=O)c1ccccc1
OUTPUT: 23 µM

INPUT: Give TGI for the following compound: CC#Cc1c(C#CC)c(OC)c2c(c1OC)C(=O)c1ccccc1C2=O
OUTPUT: > 100 µM

INPUT: Give TGI for the following compound: Cc1ccc([N+](=O)[O-])c2c(NCCC[N+](C)(C)[O-])ccnc12
OUTPUT: > 100 µM

INPUT: Give TGI for the following compound: COc1cc(C2S/C(=C/c3ccccc3)C(=O)N2c2ccccc2Cl)cc(OC)c1OC (centres undefined)
OUTPUT: > 100 µM

INPUT: Give TGI for the following compound: Cn1ncnc1C1c2n[nH]c(=O)c3cc(F)cc(c23)NC1c1ccc(F)cc1 (centres undefined)
OUTPUT: > 100 µM

INPUT: Give TGI for the following compound: CC(=O)/C(=C(/Br)I)c1ccccc1
OUTPUT: 28.2 µM

INPUT: Give TGI for the following compound: CC(=O)O/N=C/c1cc2c(cc1Br)OCO2
OUTPUT: > 349 µM

INPUT: Give TGI for the following compound: O=C1Cc2ccccc2CCc2ccsc21
OUTPUT: > 100 µM

INPUT: Give TGI for the following compound: Cc1ncc(CO)c(C=NCCCCCCN=Cc2c(CO)cnc(C)c2O)c1O
OUTPUT: > 100 µM

INPUT: Give TGI for the following compound: O=C(Nc1ccc(S(=O)(=O)Nc2ncccn2)cc1)c1c2ccccc2nc2ccccc12
OUTPUT: > 100 µM

INPUT: Give TGI for the following compound: CC1(C)CC2(C)ON=C(c3ccccc3)N2c2ccccc2N1 (centres undefined)
OUTPUT: > 100 µM
